Entries and their inhibition at 10 µM values follow.
Experimental system: Recombinant human LTC4 synthase (Homo sapiens)
Construct: made in house; host or cells: Pichia pastoris
Sequence (Q16873 whole entry): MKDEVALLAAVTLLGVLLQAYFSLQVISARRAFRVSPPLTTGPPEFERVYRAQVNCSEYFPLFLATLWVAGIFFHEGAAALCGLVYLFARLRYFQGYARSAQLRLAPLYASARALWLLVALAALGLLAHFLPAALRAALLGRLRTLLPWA
Protocol summary: LTC4 synthase in vitro assay (HTRF detection of LTC4)
Assay type: biochemical
Settings: total concentration of title compound in the assay 10 μM; HTRF method
Just the number please, in %, no unit attached.

Substance smiles: CCCCc1ccc(S(=O)(=O)Nc2ccc(Sc3ccc(NS(=O)(=O)c4ccc(CCCC)cc4)c(C(=O)O)c3)cc2)cc1
inhibition at 10 µM, %: 98

**Q:** Quick one: inhibition at 10 µM for COc1ccc(S(=O)(=O)N(C)c2ccc(Oc3ccc(NC(=O)c4c(F)cccc4F)c(C(=O)O)c3)cc2)cc1 ?
**A:** 94

**Q:** Quick one: inhibition at 10 µM for CCCCc1ccc(C(=O)Nc2ccc(Sc3ccc(NC(=O)c4ccc(CCCC)cc4)c(C(=O)O)c3)cc2C(=O)O)cc1 ?
**A:** 98

**Q:** Quick one: inhibition at 10 µM for CCCCOc1ccc(S(=O)(=O)Nc2ccc(Oc3ccc(N(C)C(=O)c4cccc(Cl)c4Cl)c(C(=O)O)c3)cc2)cc1 ?
**A:** 95

**Q:** Quick one: inhibition at 10 µM for CCCCc1ccc(C(=O)Nc2ccc(Oc3ccc(NC(=O)c4ccc(C(F)(F)F)cc4)c(C(=O)O)c3)cc2)cc1 ?
**A:** 89

**Q:** Quick one: inhibition at 10 µM for CCCCOc1ccc(S(=O)(=O)Nc2ccc(Oc3cccc(C(=O)NS(=O)(=O)c4ccc(F)c(F)c4)c3)cc2C(=O)O)cc1 ?
**A:** 97

Data origin, for the record: patent US20110071197A1
